Sourced from PubChem BioAssay (NCI)

Tested on: NCI-H226 lung
Test: NCI-60 one-dose screen, 48 h
Conditions: 10 µM unless noted
This is part of a sample that, as a whole, favours compounds with a hit. Of some 83,000 tested, about 20% had one in any assay. Activity calls are given as the source filed them. The calls were made as follows: active = growth percent below 10; inactive = the rest.
Parameter call: string, one of 1 (yes) for active, 0 (no) for inactive

// known answers, use as guide
compound	label-class
COc1ccc(Cn2cc(C(=O)Nc3cccnc3Nc3ccccc3)nn2)cc1	0 (no)
Cn1cc(-c2nonc2-c2cn(C)c3ccc(Br)cc23)c2ccccc21	0 (no)
COc1ccc(/C=N/C2=C(C#N)C(c3ccccc3)c3c(ccc4ccccc34)O2)cc1 (stereo not drawn)	0 (no)
Nc1nc(Nc2ccc(F)cc2)nn1C(=O)c1cc(Cl)ccc1Cl	0 (no)
O=C(NCc1cccnc1)/C(=C\c1ccc(Br)cc1)S(=O)(=O)c1ccccc1	1 (yes)
CN1CCN(C(=O)OCc2nc3c(N4CCOCC4)nc(Cl)nc3n2C)CC1	1 (yes)
COc1nc(=O)n(C2C=CC(=O)O2)cc1F (stereo not drawn)	0 (no)
Cc1nc2sc(C(=O)Nc3cccc4ncccc34)c(N)c2cc1C(C)O (stereo not drawn)	0 (no)

### Prompt Status in this test for `CCCc1cc(C(N)=S)ccn1` ?
### Response 0 (no)

====

Tested on: SNB-75 CNS
Experiment: NCI-60 one-dose screen, 48 h (100 = growth as untreated, 0 = no growth, -100 = all killed)
Details: 10 µM unless noted
The panel holds about 83,000 compounds, 20% with a hit somewhere; the sample as a whole holds those more often. Calls of active or inactive are those of the source. The calls were made as follows: active = growth percent below 10; inactive = the rest.
endpoint: growth

The reported value for `Cc1nn(-c2nc(-c3cc4ccccc4oc3=O)cs2)c(C)c1N=Nc1ccccc1` in terms of growth is 89.4% (inactive)

The reported value for `NS(=O)(=O)c1ccc(C(=O)N=Nc2c(O)[nH]c3c(F)cccc23)cc1` in terms of growth is 97.7% (inactive)

====

Tested on: CCRF-CEM leukemia
Assay: NCI-60 one-dose screen, 48 h
Conditions: 10 µM unless noted
Method: Growth inhibition of the CCRF-CEM human tumor cell line is measured as a screen for anti-cancer activity. Cells are grown in 96 well plates and exposed to the test compound for 48 hours. Compounds are tested at a single concentration, which is 10^-5 M for most compounds. The reported endpoint is percent growth (GI% or GIPRCNT), where numbers from 0 - 100% represent growth inhibition, and numbers from -100% - 0 represent cell death. For example, a value of 40 represents 60% growth inhibition. […]
About 83,000 compounds went through this panel and 20% of them were active in at least one assay; those are over-represented in the sample as a whole. Active and inactive are the calls of the source. How the source made its calls: active means growth percent below 10; inactive means the rest.
Parameter call: string, one of active, inactive

// known answers, use as guide
compound	experimental-target	label-class
O=C1C(c2c[nH]c3ccccc23)=C(c2coc3cc(Br)ccc23)C(=O)N1O	CCRF-CEM leukemia	inactive
COc1ccc(-c2ccc(-c3ccc(C(=N)N)cn3)s2)cc1Cl	CCRF-CEM leukemia	active

### Prompt Status in this test for `O=C(/C=C/c1cccc(Oc2ccc(Cl)cc2)c1)c1ccccc1` ?
### Response active

====

System: OVCAR-5 ovarian
Test: NCI-60 one-dose screen, 48 h
Details: 10 µM unless noted
The panel holds about 83,000 compounds, 20% with a hit somewhere; the sample as a whole holds those more often. The source made the active and inactive calls. How the source made its calls: active means growth percent below 10; inactive means the rest.
Parameter call: string, one of active, inactive

compound	label-class
CCCCCCCCCCCCC[C@H](O)C[C@H](O)[C@H](C)N	inactive

### Prompt Status in this test for O=C1N=c2ccccc2=C1c1sc(=S)n(C2CC(=O)N(c3ccc(Cl)cc3)C2=O)c1O (centres undefined) ?
### Response inactive

### Prompt Status in this test for COc1cccc(C2C(C#N)=C(N)Oc3cc(OCCCCCC[P+](c4ccccc4)(c4ccccc4)c4ccccc4)ccc32)c1 (centres undefined) ?
### Response active

### Prompt Status in this test for `Cc1c(C(C)(C)O)cn2ncnc(Oc3ccc(NC(=O)Nc4ccc(Cl)c(C(F)(F)F)c4)cc3)c12` ?
### Response inactive

### Prompt Status in this test for `Cc1ccc(-c2nc([P+](c3ccccc3)(c3ccccc3)c3ccccc3)c(Nc3ccccc3)o2)cc1` ?
### Response active

### Prompt Status in this test for `CCOc1ccccc1NC(=O)c1cc2ccccc2cc1O` ?
### Response inactive

### Prompt Status in this test for `Cc1cccc(Cc2cnc(NC(=O)CCCOc3ccc(Cl)cc3)s2)c1` ?
### Response inactive

### Prompt Status in this test for `COC(=O)c1nc(-c2ccc(C)cc2)oc1S(=O)(=O)c1ccc(Cl)cc1` ?
### Response inactive

### Prompt Status in this test for `Clc1ccc2c(c1)N(c1ncnc3ccc(-c4cnc5[nH]ccc5c4)cc13)CC2` ?
### Response inactive
